# AC50 listing for each entry below
- Assay System: PKR K410E (Homo sapiens, UniProt P30613, K410E)
- Sequence (P30613 whole entry K410E): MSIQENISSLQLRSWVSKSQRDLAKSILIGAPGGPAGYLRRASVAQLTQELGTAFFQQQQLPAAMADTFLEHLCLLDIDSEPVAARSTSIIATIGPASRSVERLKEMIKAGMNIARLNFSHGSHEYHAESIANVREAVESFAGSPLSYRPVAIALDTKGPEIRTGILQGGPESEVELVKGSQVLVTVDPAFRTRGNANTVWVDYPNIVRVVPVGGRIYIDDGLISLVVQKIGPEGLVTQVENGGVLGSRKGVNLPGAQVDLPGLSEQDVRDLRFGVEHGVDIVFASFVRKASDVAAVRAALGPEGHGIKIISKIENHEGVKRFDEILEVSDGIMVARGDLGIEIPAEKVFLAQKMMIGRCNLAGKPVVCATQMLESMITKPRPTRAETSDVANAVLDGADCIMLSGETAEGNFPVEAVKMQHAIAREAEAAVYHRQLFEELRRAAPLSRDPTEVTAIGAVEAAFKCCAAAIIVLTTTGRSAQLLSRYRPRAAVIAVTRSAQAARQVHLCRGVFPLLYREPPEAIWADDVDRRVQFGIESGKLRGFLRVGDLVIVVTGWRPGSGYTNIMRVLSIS
- Method Summary: PKR mutant assay (K410E), AC50, LDH/NADH-coupled, absorbance at 340 nm
- Assay type: biochemical
- Test Conditions: Table 2; enzyme assay

Please review the following examples before continuing.
Cn1c2nc(Cc3csc(CO)n3)sc2c2cnn(Cc3cccc4[nH]ncc34)c(=O)c21; < 300 nM
COc1cccc(Cn2ncc3c4sc(C(F)c5ccccc5)nc4n(C)c3c2=O)c1 (stereo not shown); < 300 nM
COc1cccc(Cn2ncc3c4sc(Cc5ccc(C#N)cc5)nc4n(C)c3c2=O)c1; < 300 nM

Turning now to a further compound:
Which AC50 reading was recorded for the compound Cc1nc2c(s1)c1cnn(Cc3cccc(C(=O)O)c3)c(=O)c1n2C ?
> 800 nM

====

The reader will find reported AC50 values listed item by item below.
- Assay System: PKR K410E (Homo sapiens, UniProt P30613, K410E)
- Method Summary: PKR mutant assay (K410E), AC50, LDH/NADH-coupled, absorbance at 340 nm
- Format: biochemical
- Test Conditions: Table 2; enzyme assay

Cn1c2nc(Cc3cccc(C#N)c3)sc2c2cnn(Cc3cccc4[nH]ncc34)c(=O)c21 [Compound 99]; 301 to 800 nM

Query (compound): COc1cccc(Cn2ncc3c4sc(Cl)nc4n(C)c3c2=O)c1 [Compound 30] ; field requested: AC50
301 to 800 nM

Entry Cc1nc2c(s1)c1cnn(Cc3ccc4cc[nH]c4c3)c(=O)c1n2C [Compound 60] has what AC50?
< 300 nM

Requested field: AC50. Item: COC(=O)Cc1nc2c(s1)c1cnn(Cc3cccc4[nH]ncc34)c(=O)c1n2C [Compound 131]
< 300 nM

====

This section presents compounds with their documented EC50 values.
- Assay System: wild type PKR (Homo sapiens, UniProt P30613)
- Sequence (P30613 whole entry): as the sequence (P30613 whole entry K410E) above, with E410K counted along it
- Method Summary: Cell based ATP assay in purified red blood cells (Cell-Titer-Glo)
- Set-up: endogenous in cells; host or cells: purified red blood cells from healthy volunteers
- Test Conditions: Table 4; AC50, RBCs, overnight at 37° C., ATP levels

Completed entries (count: 10):
Cn1c2nc(Cc3c[nH]nn3)sc2c2cnn(Cc3ccc(OC(F)(F)F)cc3)c(=O)c21; ≤ 1000 nM
Cn1c2nc(Cc3cc[nH]n3)sc2c2cnn(Cc3cccc4c3CNC4)c(=O)c21; ≤ 1000 nM
Cn1c2nc(Cc3cc[nH]n3)sc2c2cnn(Cc3ccccc3)c(=O)c21; ≤ 1000 nM
Cn1c2nc(Cc3n[nH]cc3F)sc2c2cnn(Cc3ccccc3)c(=O)c21; ≤ 1000 nM
Cn1c2nc(Cc3cccc4cn[nH]c34)sc2c2cnn(Cc3cc[nH]n3)c(=O)c21; ≤ 1000 nM
Cn1cc(Cc2nc3c(s2)c2cnn(Cc4cccc(C(N)=O)c4)c(=O)c2n3C)cn1; > 1000 nM
Cn1c2nc(Cc3nccs3)sc2c2cnn(Cc3cccc4[nH]ncc34)c(=O)c21; ≤ 1000 nM
Cn1c2nc(Cc3cc[nH]n3)sc2c2cnn(Cc3ccc4scnc4c3)c(=O)c21; ≤ 1000 nM
Cn1c2nc(Cc3cccc4[nH]nnc34)sc2c2cnn(Cc3cccc4[nH]ncc34)c(=O)c21; ≤ 1000 nM
O=c1c2c(cnn1Cc1ccccc1)c1sc(Cc3cc[nH]n3)nc1n2C1CC1; > 1000 nM

API: value(readout=EC50, system=wild type PKR (Homo sapiens, UniProt P30613)) for record CC(=O)c1cccc(CC(c2cc[nH]n2)c2nc3c(s2)c2cnn(Cc4cccc(C(C)=O)c4)c(=O)c2n3C)c1 (stereo not shown)
> 1000 nM

Any idea what EC50 came out for Cn1c2nc(Cc3cc[nH]n3)sc2c2cnn(CCc3cscn3)c(=O)c21 on wild type PKR (Homo sapiens, UniProt P30613)?
≤ 1000 nM

GET /values?readout=EC50&system=wild type PKR (Homo sapiens, UniProt P30613)&item= CC(c1cc[nH]n1)c1nc2c(s1)c1cnn(Cc3cccc4[nH]ncc34)c(=O)c1n2C (stereo not shown)
≤ 1000 nM

Find EC50 (wild type PKR (Homo sapiens, UniProt P30613)) for the entry Cn1c2nc(Cn3cncn3)sc2c2cnn(Cc3cccc4[nH]ncc34)c(=O)c21
≤ 1000 nM

Tell me reported EC50 for Cn1c2nc(Cc3cnc(N)s3)sc2c2cnn(Cc3cccc4[nH]ncc34)c(=O)c21 , tested with wild type PKR (Homo sapiens, UniProt P30613).
> 1000 nM

Could you share what EC50 was measured for Cn1c2nc(Cc3ccccn3)sc2c2cnn(Cc3ccccc3)c(=O)c21 , tested on wild type PKR (Homo sapiens, UniProt P30613)?
≤ 1000 nM

The measured values listed here are drawn from patent US11957680B2.
